experiment notes: Protein binding in human plasma by ultracentrifugation method
Assay type: ADME, cell-free
experimental context: read-out: PPB
endpoint: fraction unbound

For reference, reported fraction unbound for C=C(C)[C@@H]1CC[C@]2(C(=O)O)CC[C@]3(C)[C@H](CC[C@@H]4[C@@]5(C)CC[C@H](OC(=O)CC(C)(C)C(=O)O)C(C)(C)[C@@H]5CC[C@]43C)[C@@H]12 [BEVIRIMAT] stands at < 0.001

====

experiment notes: Cytotoxicity against human MT2 cells assessed as reduction in cell viability
Type: toxicity, cell-based
For each of the compounds below, state its CC50.
# unit: µM | format: bare number

For reference, reported CC50 for C=C(C)[C@@H]1CC[C@]2(NCCN3CCN(S(C)(=O)=O)CC3)CC[C@]3(C)[C@H](CC[C@@H]4[C@@]5(C)CC=C(C6=CC[C@](CF)(C(=O)O)CC6)C(C)(C)[C@@H]5CC[C@]43C)[C@@H]12 stands at 11.4

For reference, reported CC50 for C=C(C)[C@@H]1CC[C@]2(NCCCC(C)(C)O)CC[C@]3(C)[C@H](CC[C@@H]4[C@@]5(C)CC=C(C6=CC[C@](CF)(C(=O)O)CC6)C(C)(C)[C@@H]5CC[C@]43C)[C@@H]12 stands at 7.5
